target: H1047R PIK3CA enzyme (Homo sapiens, UniProt P42336, H1047R); assay: ADP-Glo Biochemical PIK3CA Kinase Assay
Sequence (P42336 whole entry H1047R): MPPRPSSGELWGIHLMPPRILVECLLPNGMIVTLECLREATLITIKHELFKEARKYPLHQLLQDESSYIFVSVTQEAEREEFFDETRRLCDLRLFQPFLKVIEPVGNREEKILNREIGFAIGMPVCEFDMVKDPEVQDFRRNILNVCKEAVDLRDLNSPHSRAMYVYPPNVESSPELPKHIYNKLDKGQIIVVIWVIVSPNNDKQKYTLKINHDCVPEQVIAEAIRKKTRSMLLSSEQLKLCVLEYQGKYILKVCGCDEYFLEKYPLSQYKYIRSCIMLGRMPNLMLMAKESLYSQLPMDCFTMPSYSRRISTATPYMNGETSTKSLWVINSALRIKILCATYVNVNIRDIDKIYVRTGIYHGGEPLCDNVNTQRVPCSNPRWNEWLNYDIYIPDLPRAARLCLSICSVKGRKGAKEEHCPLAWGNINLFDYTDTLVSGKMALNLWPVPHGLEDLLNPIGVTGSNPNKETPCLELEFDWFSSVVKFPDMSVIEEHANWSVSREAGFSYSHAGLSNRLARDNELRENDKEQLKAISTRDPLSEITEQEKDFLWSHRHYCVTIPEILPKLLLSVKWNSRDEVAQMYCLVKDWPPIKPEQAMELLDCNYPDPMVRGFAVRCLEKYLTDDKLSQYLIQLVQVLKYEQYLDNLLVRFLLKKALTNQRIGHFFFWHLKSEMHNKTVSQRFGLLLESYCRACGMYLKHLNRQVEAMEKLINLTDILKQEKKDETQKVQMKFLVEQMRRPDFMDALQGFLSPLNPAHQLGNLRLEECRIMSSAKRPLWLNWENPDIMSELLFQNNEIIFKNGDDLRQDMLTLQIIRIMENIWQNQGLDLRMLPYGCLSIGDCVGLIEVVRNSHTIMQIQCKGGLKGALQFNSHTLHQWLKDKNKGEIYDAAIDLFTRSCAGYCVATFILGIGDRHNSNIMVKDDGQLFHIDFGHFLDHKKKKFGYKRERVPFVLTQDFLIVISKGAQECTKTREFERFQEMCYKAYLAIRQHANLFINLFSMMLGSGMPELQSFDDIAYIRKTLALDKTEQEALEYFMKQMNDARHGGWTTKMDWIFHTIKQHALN
Sequence (P27986 whole entry partner): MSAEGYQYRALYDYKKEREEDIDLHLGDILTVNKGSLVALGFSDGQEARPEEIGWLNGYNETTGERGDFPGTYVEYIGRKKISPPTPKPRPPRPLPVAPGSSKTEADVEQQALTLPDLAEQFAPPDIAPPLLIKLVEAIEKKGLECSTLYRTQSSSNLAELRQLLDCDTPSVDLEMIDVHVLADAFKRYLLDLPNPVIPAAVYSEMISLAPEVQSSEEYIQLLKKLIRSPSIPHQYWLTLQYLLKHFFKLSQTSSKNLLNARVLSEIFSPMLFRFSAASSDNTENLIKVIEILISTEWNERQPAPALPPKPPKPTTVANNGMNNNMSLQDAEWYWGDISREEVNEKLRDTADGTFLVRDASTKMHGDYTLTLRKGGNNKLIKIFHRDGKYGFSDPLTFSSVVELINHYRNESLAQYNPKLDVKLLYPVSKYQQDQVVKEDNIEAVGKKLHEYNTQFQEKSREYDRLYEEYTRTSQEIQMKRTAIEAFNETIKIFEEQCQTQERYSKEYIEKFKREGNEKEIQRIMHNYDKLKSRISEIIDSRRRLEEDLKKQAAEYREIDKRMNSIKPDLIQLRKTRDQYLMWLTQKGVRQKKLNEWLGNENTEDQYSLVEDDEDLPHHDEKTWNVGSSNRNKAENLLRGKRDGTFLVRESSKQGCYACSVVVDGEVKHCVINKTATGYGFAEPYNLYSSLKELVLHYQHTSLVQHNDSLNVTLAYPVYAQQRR
recorded_endpoint: IC50

A selection of reference data follows.
molecule: Cn1cc(-c2cc(NC(=O)c3cc(F)cc(C(F)(F)F)c3)c3c(c2)C(=O)NC3c2cc(F)ccc2Cl)ccc1=O (stereo not shown)
target_under_test: H1047R PIK3CA enzyme (Homo sapiens, UniProt P42336, H1047R)
IC50: ≤ 100 nM
--
molecule: O=C(Nc1cc(NC(=O)C2CS(=O)(=O)C2)cc2c1C(c1cc(F)ccc1Cl)NC2=O)c1cc(F)cc(C(F)(F)F)c1 (stereo not shown)
target_under_test: H1047R PIK3CA enzyme (Homo sapiens, UniProt P42336, H1047R)
IC50: ≤ 100 nM

The value of IC50 measured for the molecule Cc1ccccc1C1NC(=O)c2cccc(NC(=O)N3CCc4ccc(Cl)cc43)c21 (stereo not shown) turned out to be 100 to 500 nM

The value of IC50 measured for the molecule O=C(Nc1cc(C2COC2)cc2c1C(c1cc(F)ccc1Cl)NC2=O)c1cc(F)cc(C(F)(F)F)c1 (stereo not shown) turned out to be ≤ 100 nM

The value of IC50 measured for the molecule COc1cccc(C2NC(=O)c3cccc(NC(=O)c4cc(F)cc(C(F)(F)F)c4)c32)c1 (stereo not shown) turned out to be 10000 to 100000 nM

The value of IC50 measured for the molecule Cc1noc2ncc(-c3cc(NC(=O)c4cc(F)cc(C(F)(F)F)c4)c4c(c3)C(=O)NC4c3cc(F)ccc3Cl)cc12 (stereo not shown) turned out to be ≤ 100 nM

The value of IC50 measured for the molecule COc1nccc(-c2cc(NC(=O)c3cc(F)cc(C(F)(F)F)c3)c3c(c2)C(=O)NC3c2cc(F)ccc2Cl)n1 (stereo not shown) turned out to be ≤ 100 nM
